- Tested on: NCI-H460 lung
- experiment-summary: NCI-60 one-dose screen, 48 h
- condition-summary: 10 µM unless noted
Compounds without any hit were thinned out: in the full panel of roughly 83,000, 20% have a hit. Activity calls are given as the source filed them. Rule for the calls: active = growth percent below 10; inactive = the rest.
Outcomes: true (1) for active, false (0) for inactive

>>> class_name("C=C1C(=O)O[C@H]2[C@H]1CC/C(COC(=O)/C=C\\C(=O)NCc1ccc(Cn3c(=O)sn(-c4ccccc4)c3=O)cc1)=C\\CC[C@@]1(C)O[C@@H]21")
"false (0)"
>>> class_name("CC(=O)N(Cc1ccccc1)c1nc2ccc(O)c(CN(C)C)c2s1")
"false (0)"
>>> class_name("CCN(CC)c1ccc(/C=C\\c2cc(C)c3cc(C)ccc3n2)cc1")
"false (0)"
>>> class_name("O=C(Nc1ncc(Cc2ccccc2Cl)s1)c1cccs1")
"false (0)"
>>> class_name("C/C(C=O)=C\\c1ccc2c(c1)OCO2")
"false (0)"
>>> class_name("CCCCCCCCn1ccc2cc(NC(=O)Cn3cc(CN4CCC(C)CC4)nn3)ccc21")
"true (1)"
>>> class_name("N#C/C(=C\\c1ccc(Br)cc1)c1cc2ccccc2[nH]1")
"false (0)"
>>> class_name("COc1ccc2nc(Cl)c(/C=C/C(=O)c3ccc(NC(=O)CSc4nnc(-c5ccc(Cl)c(Cl)c5)n4-c4ccccc4)cc3)cc2c1")
"false (0)"
>>> class_name("COc1ccc2c(O)c(/C=C3\\N=Nc4ccccc43)oc2c1C[C@H]1CCNC[C@H]1F")
"false (0)"
>>> class_name("O=C1OCC2=C1C(c1cccc(F)c1)c1cc3c(cc1N2CCO)OCO3 (stereo unspecified)")
"false (0)"
>>> class_name("O=C(/C=C/C12c3ccccc3C(c3ccccc31)C1C(=O)NC(=O)C12)c1ccc(F)cc1 (stereo unspecified)")
"true (1)"
>>> class_name("CCN(CC)CCOc1ccc(Nc2ncc3cc(-c4ccc(O)cc4)c(=O)n(C)c3n2)cc1")
"false (0)"
>>> class_name("O=C(/C=C/c1ccc(Br)cc1)c1ccc(-n2cc(CN3CCN(c4cc5c(cc4F)c(=O)c(C(=O)O)cn5C4CC4)CC3)nn2)cc1")
"false (0)"
>>> class_name("CCCCc1oc2ccccc2c1C(=O)c1ccc(O)cc1")
"false (0)"
>>> class_name("CN1CCN(C(=O)c2cc(-c3ccc4ncnc(N5CCc6cc(F)c(Cl)cc65)c4c3)cnc2N)CC1")
"true (1)"
>>> class_name("O=C(Cn1nnc2ccccc21)Nc1ccc(-c2nc3ccccc3s2)cc1")
"false (0)"
>>> class_name("COc1ccc2cc(-c3cnc4nonc4n3)ccc2c1")
"false (0)"
>>> class_name("O=C(CCCCNC(=O)c1cc(=O)c(O)co1)Nc1ccccc1")
"false (0)"
>>> class_name("O=C1N[C@@H]2[C@@H](O)[C@@H](O)[C@H](O)C[C@H]2c2cc3c(c(O)c21)OCCO3")
"true (1)"
>>> class_name("COc1ccc(NC(=O)c2cccc(C3CCc4c(cc(OC)c(OC)c4OC)O3)c2)cc1 (stereo unspecified)")
"false (0)"
>>> class_name("CCOC(=O)c1c(C)nc2c(c1N)CC(=O)N2Cc1cc(OC)c(OC)c(OC)c1")
"false (0)"
>>> class_name("NC(CSC(c1ccccc1)(c1ccccc1)c1ccc2c(c1)OCO2)C(=O)O (stereo unspecified)")
"true (1)"
>>> class_name("COc1ccc(C/C(C)=C(/c2ccc(OCCN3CCCCCC3)cc2)c2ccc(OC(=O)NCc3ccccc3)cc2)cc1")
"false (0)"
>>> class_name("COc1cc(C(=O)/C=C/c2c(-c3cccs3)nc3ccccn23)cc(OC)c1OC")
"true (1)"
>>> class_name("CCN=C1C=CC(=C(c2ccc(N(C)C)cc2)c2ccc(N(C)C)cc2)c2ccccc21")
"true (1)"
>>> class_name("COc1ccc2c(c1)c(-c1nonc1-c1cn(C)c3ccc(OC)cc13)cn2C")
"false (0)"
>>> class_name("Cc1[nH]c(/C=C/C(=O)c2ccc(C(F)(F)F)c(F)c2)c(C)c1C(=O)NCC(C)C")
"false (0)"
>>> class_name("C=C1C(=O)O[C@H]2[C@H]1CC/C(COC(=O)c1cc3cc(F)ccc3[nH]1)=C\\CC[C@@]1(C)O[C@@H]21")
"true (1)"
>>> class_name("Cc1c2cnccc2c(C)c2c1c1cc(C3OCCCO3)ccc1n2C")
"true (1)"
>>> class_name("O=c1nc(Nc2nc3ccccc3s2)[nH]c(=O)c2ccccc12")
"false (0)"
>>> class_name("CC(C(=O)O)n1c(O)c(C=Nc2cccnc2)sc1=S (stereo unspecified)")
"false (0)"
